B1: library; a variant is named by its letters at N, in order (parent)
chain: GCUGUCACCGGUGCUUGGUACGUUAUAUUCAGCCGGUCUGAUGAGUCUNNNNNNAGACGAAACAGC

- Variants of: B1
- assay explanation: normalized RNA/DNA level with ligand (relative to sTRSVctl = 100) (log10 (% of sTRSVctl)); HEK293T overexpressing SLC46A1; ligand concentration (+) RNA-Seq: 6 mM; higher = less ribozyme self-cleavage, higher mRNA level
- reported conditions: with (6R,S)-folinic acid; ligand present: yes
measure: normalized RNA/DNA level with ligand (log10)
Would you mind answering with just the numeric figure?

GCUGUCACCGGUGCUUGGUACGUUAUAUUCAGCCGGUCUGAUGAGUCUUACCAAAGACGAAACAGC; 1.99
GCUGUCACCGGUGCUUGGUACGUUAUAUUCAGCCGGUCUGAUGAGUCUUGGGUUAGACGAAACAGC; 2.02
GCUGUCACCGGUGCUUGGUACGUUAUAUUCAGCCGGUCUGAUGAGUCUAGAAGAAGACGAAACAGC; 2.02
GCUGUCACCGGUGCUUGGUACGUUAUAUUCAGCCGGUCUGAUGAGUCUGGGUCGAGACGAAACAGC; 2.06
GCUGUCACCGGUGCUUGGUACGUUAUAUUCAGCCGGUCUGAUGAGUCUCCGUAGAGACGAAACAGC; 1.99
GCUGUCACCGGUGCUUGGUACGUUAUAUUCAGCCGGUCUGAUGAGUCUCGCGUUAGACGAAACAGC; 2.07

Q. Look up and state reported normalized RNA/DNA level with ligand (log10) for GCUGUCACCGGUGCUUGGUACGUUAUAUUCAGCCGGUCUGAUGAGUCUCCGCACAGACGAAACAGC
A. 1.99

Q. Look up and state reported normalized RNA/DNA level with ligand (log10) for GCUGUCACCGGUGCUUGGUACGUUAUAUUCAGCCGGUCUGAUGAGUCUAAUUUCAGACGAAACAGC
A. 2.01

Q. Look up and state reported normalized RNA/DNA level with ligand (log10) for GCUGUCACCGGUGCUUGGUACGUUAUAUUCAGCCGGUCUGAUGAGUCUGAUAAUAGACGAAACAGC
A. 2.01

Q. Look up and state reported normalized RNA/DNA level with ligand (log10) for GCUGUCACCGGUGCUUGGUACGUUAUAUUCAGCCGGUCUGAUGAGUCUUACGUAAGACGAAACAGC
A. 1.98
